- assayRemarks: drug combination growth inhibition, ovarian cancer – cell-based, oncology-focused library, rucaparib conditional, profiling panel (AID 1508598)
- experimentalParameters: patient-derived ovarian cancer cells, CellTiter-Glo viability, 144 h; at 0.00122 µM; OCI-C5x cells; with rucaparib 10 µM; stronger effect = lower value; 100% = cells with rucaparib alone
Overview of reported viability across a group of compounds:
# unit: % | format: bare number

Exercise: Would you kindly share the measured viability for `Cc1[nH]c(C=C2C(=O)Nc3ccc(S(=O)(=O)N(C)c4cccc(Cl)c4)cc32)c(C)c1C(=O)N1CCN(C)CC1` ?
Solution: 117

Exercise: Would you kindly share the measured viability for `CO[C@H]1C[C@@H]2CC[C@@H](C)[C@@](O)(O2)C(=O)C(=O)N2CCCC[C@H]2C(=O)O[C@H]([C@H](C)C[C@@H]2CC[C@@H](O)[C@H](OC)C2)CC(=O)[C@H](C)/C=C(\C)[C@@H](O)[C@H](OC)C(=O)[C@H](C)C[C@H](C)/C=C/C=C/C=C/1C` ?
Solution: 99.6

Exercise: Would you kindly share the measured viability for `C=CS(=O)(=O)NC1CCN(C(=O)CNc2cc(I)c(Cl)cc2OC)CC1` ?
Solution: 117

Exercise: Would you kindly share the measured viability for CCOC(=O)c1[nH]c2cc(Cl)ccc2c1C(C(=O)NC(C)(C)C)N(C=O)Cc1ccc(Cl)cc1 (centres undefined) ?
Solution: 112

Exercise: Would you kindly share the measured viability for `O=C(NCC1(c2nc(-c3ccccc3)cs2)CCOCC1)c1cccc(-c2noc(C(F)(F)F)n2)c1` ?
Solution: 128

Exercise: Would you kindly share the measured viability for `Nc1ncn([C@@H]2O[C@H](CO)[C@@H](O)[C@@H]2O)c(=O)n1` ?
Solution: 108

Exercise: Would you kindly share the measured viability for `NC(=O)CCCSc1nc(N)nc(-c2c(Cl)cc3c4c(cccc24)COC3)n1` ?
Solution: 107

Exercise: Would you kindly share the measured viability for `CO[C@H]1/C=C\C=C(\C)C(=O)NC2=CC(=O)C(NCCN(C)C)=C(C[C@@H](C)C[C@H](OC)[C@H](O)[C@@H](C)/C=C(\C)[C@@H]1OC(N)=O)C2=O` ?
Solution: 109

Exercise: Would you kindly share the measured viability for `COc1cc([C@H]2c3cc4c(cc3[C@@H](O[C@@H]3O[C@@H]5CO[C@@H](C)O[C@H]5[C@H](O)[C@@H]3O)[C@H]3COC(=O)[C@H]23)OCO4)cc(OC)c1O` ?
Solution: 108

Exercise: Would you kindly share the measured viability for `Cc1cc2c(C(=O)NC[C@H](C)c3ccccc3)c(O)c(O)cc2c(O)c1-c1c(C)cc2c(C(=O)NC[C@H](C)c3ccccc3)c(O)c(O)cc2c1O` ?
Solution: 132

Exercise: Would you kindly share the measured viability for `C=CCNC1=C2C[C@@H](C)C[C@H](OC)[C@H](O)[C@@H](C)/C=C(\C)[C@H](OC(N)=O)[C@@H](OC)/C=C\C=C(\C)C(=O)NC(=CC1=O)C2=O` ?
Solution: 113
